target: UniProtKB P00742
Sequence (P00742 41-179 limits assumed): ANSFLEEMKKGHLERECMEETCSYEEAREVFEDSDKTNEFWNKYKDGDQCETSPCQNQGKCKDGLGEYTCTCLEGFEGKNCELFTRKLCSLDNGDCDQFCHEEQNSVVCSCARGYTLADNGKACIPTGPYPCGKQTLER
Sequence (P00742 235-488 limits assumed): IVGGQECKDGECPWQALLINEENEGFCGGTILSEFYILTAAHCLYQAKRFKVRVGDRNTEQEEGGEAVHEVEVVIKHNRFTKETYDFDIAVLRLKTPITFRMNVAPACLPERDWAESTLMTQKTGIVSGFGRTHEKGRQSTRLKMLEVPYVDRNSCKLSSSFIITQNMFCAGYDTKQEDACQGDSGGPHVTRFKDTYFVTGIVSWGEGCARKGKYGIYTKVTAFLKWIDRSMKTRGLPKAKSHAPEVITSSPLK
pIC50: −log10 of the molar value.
Measured property: pIC50

Guide cases for pIC50, answers given:
>>> data_value("N=C(N)c1cccc(N[C@H](C(=O)Nc2ccc(N3CCCCC3=O)cc2)c2ccccc2)c1")
7.82
>>> data_value("Cc1cc(NC(=O)COc2ccc3[nH]c(-c4ccc(Cl)s4)nc3c2)ccc1N1CCOCC1=O")
7.70
>>> data_value("Cc1cc(NC(=O)Cc2ccc3[nH]c(-c4ccc(Br)s4)nc3c2)ccc1N1CCOCC1=O")
7.39

(I) Cc1cc(NC(=O)Cc2ccc3[nH]c(-c4ccc(Cl)s4)nc3c2)ccc1-n1ccccc1=O
(II) O=C(CCc1ccc2nc(-c3ccc(Br)s3)[nH]c2c1)NCC1CCN(c2ccncc2)CC1
Data request: In the pair I and II , the larger recorded pIC50 belongs to which? Write the label of whichever entry you select.
Data returned: II
(II: 7.24, I: 6.74)

(I) O=C(CCc1ccc2[nH]c(-c3ccc(Cl)s3)nc2c1)Nc1ccc(-n2ccccc2=O)c(F)c1
(II) O=C(Cc1ccc2[nH]c(-c3ccc(Cl)s3)nc2c1)Nc1ccc(N2CCCC2=O)cc1
(III) O=C(CNC(=O)Nc1ccc(Cl)cc1)Nc1ccc(N2CCOCC2=O)cc1
(IV) O=C(Cc1ccc2[nH]c(-c3ccc(Cl)s3)nc2c1)Nc1ccc(N2CCCCC2=O)cc1
Data request: Arrange these 4 molecules in increasing order of pIC50. To answer, write out the labels according to the requested order.
Data returned: II, IV, III, I

----------
Some compounds, each annotated with its measured bioavailability.
experiment: Oral bioavailability in rat; assay type: ADME, organism-based; conditions: in vivo

Guide cases for bioavailability, answers given:
>>> data_value("O=C(Cc1ccc2[nH]c(-c3ccc(Br)s3)nc2c1)Nc1ccc(-n2ccccc2=O)cc1")
"< 20%"
>>> data_value("O=C(Cc1ccc2[nH]c(-c3ccc(Br)s3)nc2c1)NCC1CCN(c2ccncc2)CC1")
"< 20%"
>>> data_value("O=C(Cc1ccc2[nH]c(-c3ccc(Cl)s3)nc2c1)Nc1ccc(N2CCCC2=O)cc1")
"< 20%"

Data request: Give the measured bioavailability for O=C(CCc1ccc2[nH]c(-c3ccc(Cl)s3)nc2c1)Nc1ccc(N2CCOCC2=O)cc1
Data returned: < 20%

Data request: Give the measured bioavailability for Cc1cc(NC(=O)Cc2ccc3[nH]c(-c4ccc(Br)s4)nc3c2)ccc1N1CCOCC1=O
Data returned: < 20%

----------
assay: Solubility in pH 7.0 phosphate buffer; assay type: physicochemical
Measured property: solubility

Guide cases for solubility, answers given:
>>> data_value("CCC[C@@H](NC(=O)Nc1ccc(Cl)cc1)C(=O)Nc1ccc(N2CCOCC2=O)cc1")
"< 10 µg/mL"
>>> data_value("O=C(Cc1ccc(N2CCOCC2=O)cc1)Nc1ccc2[nH]c(-c3ccc(Cl)s3)nc2c1")
"< 10 µg/mL"
>>> data_value("O=C(CNC(=O)Nc1ccc(Cl)cc1)Nc1ccc(N2CCOCC2=O)cc1")
"< 10 µg/mL"
>>> data_value("O=C(Cc1ccc2[nH]c(-c3ccc(Br)s3)nc2c1)NCC1CCN(c2ccncc2)CC1")
"< 10 µg/mL"
>>> data_value("Cc1cc(NC(=O)COc2ccc3[nH]c(-c4ccc(Cl)s4)nc3c2)ccc1N1CCOCC1=O")
"< 10 µg/mL"
>>> data_value("O=C(Cc1ccc2[nH]c(-c3ccc(Cl)s3)nc2c1)Nc1ccc(N2CCCC2=O)cc1")
"< 10 µg/mL"
>>> data_value("O=C(Cc1ccc2[nH]c(-c3ccc(Cl)s3)nc2c1)Nc1ccc(N2CCOCC2=O)cc1")
"< 10 µg/mL"
>>> data_value("O=C(Cc1ccc2[nH]c(-c3ccc(Cl)s3)nc2c1)NCC1CCN(c2ccncc2)CC1")
"< 10 µg/mL"

Data request: Give the measured solubility for O=C(Cc1ccc2[nH]c(-c3ccc(Br)s3)nc2c1)Nc1ccc(-n2ccccc2=O)cc1
Data returned: < 10 µg/mL

Data request: Give the measured solubility for CS(=O)(=O)c1ccccc1-c1ccc(NC(=O)Cc2ccc3[nH]c(-c4ccc(Cl)s4)nc3c2)cc1
Data returned: < 10 µg/mL

Data request: Give the measured solubility for O=C(Nc1ccc(N2CCOCC2=O)cc1)c1ccc2[nH]c(-c3ccc(Cl)s3)nc2c1
Data returned: < 10 µg/mL

----------
Some molecules, each annotated with its measured IC50.
target: Serine protease 1 (Homo sapiens)
Sequence (P07477 whole entry): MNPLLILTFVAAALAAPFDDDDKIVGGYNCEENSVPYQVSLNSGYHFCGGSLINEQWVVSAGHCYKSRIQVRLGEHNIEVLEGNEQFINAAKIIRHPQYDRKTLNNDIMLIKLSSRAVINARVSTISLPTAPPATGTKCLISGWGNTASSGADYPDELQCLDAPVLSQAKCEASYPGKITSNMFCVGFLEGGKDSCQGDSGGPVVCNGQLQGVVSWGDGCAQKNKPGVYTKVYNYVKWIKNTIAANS

>>> data_value("O=C(CNC(=O)Nc1ccc(Cl)cc1)Nc1ccc(N2CCOCC2=O)cc1")
"> 10 µM"
>>> data_value("O=C(CCc1ccc2nc(-c3ccc(Cl)s3)[nH]c2c1)Nc1ccc(N2CCOCC2=O)cc1F")
"> 10 µM"

Data request: Lab note: Serine protease 1 (Homo sapiens) assay, enter IC50 for O=C(CCc1ccc2[nH]c(-c3ccc(Cl)s3)nc2c1)Nc1ccc(N2CCOCC2=O)c(Cl)c1 here
Data returned: > 10 µM
